Exercise: state measured RatioGI50 for each of the molecules provided.
experiment: Resistance factor, ratio of SN-38 GI50 for MDCK2 cells expressing C-terminal GFP-fused human ABCG2 in presence of 0.100 uM test compound to SN-38 GI50 for MDCK2 cells in absence of test compound; assay type: functional
Answers are plain numbers.

These recorded examples may help you get a feel for the data.
{"structure-as-smiles": "COc1ccc(C(=O)Nc2ccccc2-c2nnn(-c3ccc(OC)nc3)n2)cc1", "RatioGI50": 1.1}
{"structure-as-smiles": "O=C(Nc1ccccc1-n1cc(-c2ccccc2)nn1)c1ccccc1", "RatioGI50": 3.59}
{"structure-as-smiles": "O=C(Nc1ccccc1-c1nnc(-c2ccccc2)o1)c1ccccc1", "RatioGI50": 1.52}

# ---- query molecule ----
Req: Given the entry COc1ccc(C(=O)Nc2ccccc2-c2nnc(-c3ccc(OC)cc3)o2)cc1 , report its measured RatioGI50.
Resp: 2.17

* * *

target: ABCG2 (Homo sapiens, UniProt Q9UNQ0); assay: Inhibition of C-terminal GFP-fused human ABCG2 expressed in MDCK2 cells up to 10 uM preincubated for 30 mins followed by Hoechst 33342 addition and measured every 60 secs for 120 mins by Hoechst 33342 accumulation assay relative to XR9577; type: cell-based; conditions: MDCK2 cells expressing C-terminal GFP-fused human ABCG2, probe Hoechst 33342, read-out: Imax
quantity-measured: Emax at 2 h

These recorded examples may help you get a feel for the data.
{"structure-as-smiles": "O=C(Nc1ccccc1-c1nnn(-c2ccccc2)n1)c1ccncc1", "result": "97%"}
{"structure-as-smiles": "COc1ccc(-n2nnc(-c3cccc(NC(=O)c4ccc(C(F)(F)F)cc4)c3)n2)cc1", "result": "100%"}
{"structure-as-smiles": "COc1ccc(-n2nnc(-c3ccccc3NC(=O)c3ccccc3)n2)cn1", "result": "120%"}
{"structure-as-smiles": "O=C(Nc1ccccc1-c1nnc(-c2ccccc2)o1)c1ccccc1", "result": "101%"}
{"structure-as-smiles": "COc1ccc(C(=O)Nc2ccccc2-c2nnc(-c3ccc(OC)cc3)o2)cc1", "result": "124%"}
{"structure-as-smiles": "COc1ccc(-n2nnc(-c3ccccc3NC(=O)c3cccs3)n2)cc1", "result": "90%"}

Quick request: Emax at 2 h for each listed item, please.
1. COc1ccc(-n2nnc(-c3ccccc3NC(C)=O)n2)cc1
2. COc1ccc(-c2cn(-c3ccccc3NC(=O)c3ccc(C(F)(F)F)cc3)nn2)cc1
3. O=C(Nc1ccccc1-n1cc(-c2ccccc2)nn1)c1ccccc1
4. COc1ccc(-n2nnc(-c3ccccc3NC(=O)c3cccc4ccccc34)n2)cc1
5. c1ccc(-c2ccccc2-c2nnn(-c3ccccc3)n2)cc1
6. O=C(Nc1ccccc1-c1nnn(-c2ccccc2)n1)C1CCCCC1

Resp:
["100%", "118%", "100%", "78%", "100%", "97%"]

Quick request: Emax at 2 h for each listed item, please.
1. COc1ccc(C(=O)Nc2ccccc2-n2cc(-c3ccc(OC)cc3)nn2)cc1
2. COc1ccc(-n2nnc(-c3cc(OC)ccc3NC(=O)c3ccc([N+](=O)[O-])cc3)n2)cc1
3. O=C(Nc1ccccc1-c1nnn(-c2ccccc2)n1)c1ccccn1
4. O=C(Nc1ccccc1-c1nnn(-c2ccccc2)n1)c1cccnc1
5. O=C(Nc1ccccc1-c1nnn(-c2ccccc2)n1)C12CC3CC(CC(C3)C1)C2
6. COc1ccc(-n2nnc(-c3ccc(NC(=O)c4ccc(C(F)(F)F)cc4)cc3)n2)cc1
7. O=C(Nc1ccccc1-c1nnn(-c2ccccc2)n1)c1ccc2c(c1)OCO2

Resp:
1: 100%; 2: 50%; 3: 99%; 4: 81%; 5: 99%; 6: 100%; 7: 123%

Quick request: Emax at 2 h for each listed item, please.
1. COc1ccc(-n2nnc(-c3ccccc3NC(=O)c3cnc4ccccc4c3)n2)cc1
2. CC(=O)Nc1ccccc1-c1nnn(-c2ccccc2)n1

Resp:
1. 82%
2. 100%

* * *

biological target: ABCG2 (Homo sapiens, UniProt Q9UNQ0); experiment: Inhibition of C-terminal GFP-fused human ABCG2 expressed in MDCK2 cells up to 10 uM preincubated for 30 mins followed by Hoechst 33342 addition and measured every 60 secs for 120 mins by Hoechst 33342 accumulation assay relative to XR9577; format: cell-based; settings: MDCK2 cells expressing C-terminal GFP-fused human ABCG2, probe Hoechst 33342, read-out: Imax
quantity-measured: Emax at 2 h (%)
Give bare numbers, in %.

These recorded examples may help you get a feel for the data.
{"structure-as-smiles": "O=C(Nc1ccccc1-c1nnn(-c2ccccc2)n1)c1cccs1", "assay-target": "ABCG2 (Homo sapiens, UniProt Q9UNQ0)", "Emax at 2 h [%]": 106}
{"structure-as-smiles": "O=C(Nc1ccccc1-c1nnn(-c2ccccc2)n1)c1ccc2c(c1)OCCO2", "assay-target": "ABCG2 (Homo sapiens, UniProt Q9UNQ0)", "Emax at 2 h [%]": 106}
{"structure-as-smiles": "COc1ccc(-c2nnc(-c3ccccc3NC(=O)c3ccc(C(F)(F)F)cc3)o2)cc1", "assay-target": "ABCG2 (Homo sapiens, UniProt Q9UNQ0)", "Emax at 2 h [%]": 47}
{"structure-as-smiles": "O=C(Nc1ccccc1-c1nnn(-c2ccccc2)n1)c1cnc2ccccc2c1", "assay-target": "ABCG2 (Homo sapiens, UniProt Q9UNQ0)", "Emax at 2 h [%]": 51}
{"structure-as-smiles": "COc1ccc(-n2nnc(-c3ccccc3NS(=O)(=O)c3ccc(OC)cc3)n2)cc1", "assay-target": "ABCG2 (Homo sapiens, UniProt Q9UNQ0)", "Emax at 2 h [%]": 100}
{"structure-as-smiles": "COc1ccc(C(=O)Nc2ccccc2-c2nnn(-c3ccc(OC)nc3)n2)cc1", "assay-target": "ABCG2 (Homo sapiens, UniProt Q9UNQ0)", "Emax at 2 h [%]": 103}
{"structure-as-smiles": "COc1ccc(-n2nnc(-c3ccccc3NC(=O)c3ccc(C(F)(F)F)cc3)n2)cn1", "assay-target": "ABCG2 (Homo sapiens, UniProt Q9UNQ0)", "Emax at 2 h [%]": 95}
{"structure-as-smiles": "O=C(Nc1ccccc1-c1nnn(-c2ccccc2)n1)c1cccc2ccccc12", "assay-target": "ABCG2 (Homo sapiens, UniProt Q9UNQ0)", "Emax at 2 h [%]": 85}
{"structure-as-smiles": "COc1ccc(-n2nnc(-c3ccccc3NC(=O)C3CCCCC3)n2)cc1", "assay-target": "ABCG2 (Homo sapiens, UniProt Q9UNQ0)", "Emax at 2 h [%]": 95}
{"structure-as-smiles": "COc1ccc(-n2nnc(-c3ccccc3-n3nnc(-c4ccc(C(F)(F)F)cc4)n3)n2)cc1", "assay-target": "ABCG2 (Homo sapiens, UniProt Q9UNQ0)", "Emax at 2 h [%]": 100}

# ---- query compound ----
Req: Given the entry COc1ccc(-n2nnc(-c3cc(OC)ccc3NC(=O)c3ccc(C(F)(F)F)cc3)n2)cc1 , report its measured Emax at 2 h.
Resp: 96

* * *

Target sequence: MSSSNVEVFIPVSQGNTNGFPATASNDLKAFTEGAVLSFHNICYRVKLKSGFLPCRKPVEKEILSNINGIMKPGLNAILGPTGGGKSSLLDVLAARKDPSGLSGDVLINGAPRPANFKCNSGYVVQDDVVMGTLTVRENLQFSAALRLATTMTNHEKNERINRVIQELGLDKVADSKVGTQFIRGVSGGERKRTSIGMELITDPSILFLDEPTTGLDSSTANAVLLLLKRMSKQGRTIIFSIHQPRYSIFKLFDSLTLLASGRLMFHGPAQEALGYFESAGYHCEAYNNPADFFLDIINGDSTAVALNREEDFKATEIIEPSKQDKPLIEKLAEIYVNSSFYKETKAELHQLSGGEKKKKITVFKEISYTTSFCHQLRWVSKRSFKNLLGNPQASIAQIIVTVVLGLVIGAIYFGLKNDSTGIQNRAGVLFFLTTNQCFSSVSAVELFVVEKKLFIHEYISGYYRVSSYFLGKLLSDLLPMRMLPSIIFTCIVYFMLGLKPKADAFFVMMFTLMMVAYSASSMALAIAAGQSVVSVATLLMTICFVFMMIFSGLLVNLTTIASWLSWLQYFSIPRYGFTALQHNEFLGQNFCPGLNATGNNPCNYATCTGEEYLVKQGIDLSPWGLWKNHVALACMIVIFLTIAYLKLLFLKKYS
pIC50: −log10 of the molar value.
Would you mind labelling by pIC50? At or over 6 is Satisfied, under is Not satisfied.

Reference set (5 entries):
{"structure-as-smiles": "COc1ccc(-n2nnc(-c3ccc(NC(=O)c4ccc(C(F)(F)F)cc4)cc3)n2)cc1", "label": "Not satisfied"}
{"structure-as-smiles": "COc1ccc(-n2nnc(-c3ccccc3NS(=O)(=O)c3ccc(OC)cc3)n2)cc1", "label": "Not satisfied"}
{"structure-as-smiles": "COc1ccc(-n2nnc(-c3ccccc3NC(=O)c3ccccc3)n2)cn1", "label": "Satisfied"}
{"structure-as-smiles": "O=C(Nc1ccccc1-c1nnc(-c2ccccc2)o1)c1ccccc1", "label": "Satisfied"}
{"structure-as-smiles": "COc1ccc(-c2nnc(-c3ccccc3NC(=O)c3ccc(C(F)(F)F)cc3)o2)cc1", "label": "Satisfied"}

Req: Textbook exercise: given the entry O=C(Nc1ccccc1-c1nnn(-c2ccccc2)n1)C1CCCCC1 , state whether its pIC50 is greater than or equal to 6.
Resp: Satisfied

Req: And for O=C(Nc1ccccc1-c1nnn(-c2ccccc2)n1)c1cccc2ccccc12 ?
Resp: Satisfied

Req: And for COc1ccc(-n2nnc(-c3cc(OC)ccc3NC(=O)c3ccc(C(F)(F)F)cc3)n2)cc1 ?
Resp: Satisfied

Req: And for COc1ccc(-n2nnc(-c3ccccc3NC(=O)c3ccc(C(F)(F)F)cc3)n2)cn1 ?
Resp: Satisfied

Req: And for O=C(Nc1ccccc1-c1nnn(-c2ccccc2)n1)c1cccs1 ?
Resp: Satisfied
